Record form. Attribute: pIC50. Fill in for each entry.
Target desc: QKF-KAT6B (Homo sapiens)
Construct: purchased SignalChem K315-381BG
Sequence (Q8WYB5 whole entry): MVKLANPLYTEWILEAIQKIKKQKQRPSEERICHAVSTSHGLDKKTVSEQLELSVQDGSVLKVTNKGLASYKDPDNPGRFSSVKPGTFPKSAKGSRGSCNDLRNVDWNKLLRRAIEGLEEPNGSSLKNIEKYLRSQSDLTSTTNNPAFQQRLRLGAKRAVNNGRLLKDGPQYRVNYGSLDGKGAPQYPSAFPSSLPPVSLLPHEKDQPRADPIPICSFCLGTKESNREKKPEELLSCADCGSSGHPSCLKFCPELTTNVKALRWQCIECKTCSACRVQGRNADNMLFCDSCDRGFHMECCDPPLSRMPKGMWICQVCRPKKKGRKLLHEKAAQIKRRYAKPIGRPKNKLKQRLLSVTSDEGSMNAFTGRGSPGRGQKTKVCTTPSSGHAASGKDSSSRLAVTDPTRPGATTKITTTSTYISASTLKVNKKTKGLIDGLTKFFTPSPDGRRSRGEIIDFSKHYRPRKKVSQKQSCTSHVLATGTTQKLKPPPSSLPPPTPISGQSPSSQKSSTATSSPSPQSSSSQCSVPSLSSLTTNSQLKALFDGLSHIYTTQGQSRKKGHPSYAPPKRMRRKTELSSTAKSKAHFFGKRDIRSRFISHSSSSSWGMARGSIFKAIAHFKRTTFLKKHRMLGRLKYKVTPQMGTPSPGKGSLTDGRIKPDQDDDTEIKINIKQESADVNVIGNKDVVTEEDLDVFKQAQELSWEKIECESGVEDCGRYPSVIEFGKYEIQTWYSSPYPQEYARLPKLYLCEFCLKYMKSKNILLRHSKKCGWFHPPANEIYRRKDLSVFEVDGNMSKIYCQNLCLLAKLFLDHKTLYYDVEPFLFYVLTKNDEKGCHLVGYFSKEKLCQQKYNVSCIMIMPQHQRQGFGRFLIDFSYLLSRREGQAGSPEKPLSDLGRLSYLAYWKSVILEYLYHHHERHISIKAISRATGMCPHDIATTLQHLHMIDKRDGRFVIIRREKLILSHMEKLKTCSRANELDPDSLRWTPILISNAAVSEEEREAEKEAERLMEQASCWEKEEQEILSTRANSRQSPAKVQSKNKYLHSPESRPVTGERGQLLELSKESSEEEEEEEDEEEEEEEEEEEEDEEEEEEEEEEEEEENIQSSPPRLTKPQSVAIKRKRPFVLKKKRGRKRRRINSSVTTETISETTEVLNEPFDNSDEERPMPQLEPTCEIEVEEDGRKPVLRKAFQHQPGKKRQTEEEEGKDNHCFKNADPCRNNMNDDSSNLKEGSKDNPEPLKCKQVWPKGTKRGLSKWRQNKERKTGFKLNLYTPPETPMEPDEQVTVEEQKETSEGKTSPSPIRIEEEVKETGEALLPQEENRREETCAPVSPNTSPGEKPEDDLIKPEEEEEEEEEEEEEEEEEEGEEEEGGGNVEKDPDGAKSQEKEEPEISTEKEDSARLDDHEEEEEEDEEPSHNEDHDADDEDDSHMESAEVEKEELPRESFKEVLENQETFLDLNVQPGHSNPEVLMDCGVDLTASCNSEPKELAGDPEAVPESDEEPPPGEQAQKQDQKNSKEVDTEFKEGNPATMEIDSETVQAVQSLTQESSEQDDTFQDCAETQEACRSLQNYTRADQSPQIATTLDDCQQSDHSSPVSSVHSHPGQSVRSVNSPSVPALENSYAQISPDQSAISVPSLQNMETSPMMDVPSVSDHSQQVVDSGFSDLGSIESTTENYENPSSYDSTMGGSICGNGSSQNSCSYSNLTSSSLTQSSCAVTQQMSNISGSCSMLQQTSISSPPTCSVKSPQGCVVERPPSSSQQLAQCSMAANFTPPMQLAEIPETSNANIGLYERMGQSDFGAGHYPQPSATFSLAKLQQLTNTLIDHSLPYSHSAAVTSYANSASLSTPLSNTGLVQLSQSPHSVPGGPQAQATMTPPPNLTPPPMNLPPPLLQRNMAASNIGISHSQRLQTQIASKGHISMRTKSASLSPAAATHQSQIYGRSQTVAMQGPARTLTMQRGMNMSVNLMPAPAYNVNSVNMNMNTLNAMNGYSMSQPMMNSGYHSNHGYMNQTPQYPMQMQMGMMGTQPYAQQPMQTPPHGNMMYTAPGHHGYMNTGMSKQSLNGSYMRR
Assay details: Revised Acetyltransferase Biochemical Assay, KAT6B
Study conditions: 8 nM KAT6B, 1 μM AcCoA, 100 nM histone H3.1, 90 min
One number for each entry, as −log10 of the molar value.

Hey, quick one: what's pIC50 for each of these?
1. O=C(NCC(c1ccccc1)c1ncco1)C1=Nc2ccc(-c3cn[nH]c3)cc2S(=O)(=O)N1 (centres unmarked)
2. Cc1cccc(C(CNC(=O)C2=Nc3ccc(I)cc3S(=O)(=O)N2)c2ncco2)c1 (centres unmarked)
3. O=C(NCC1(c2ccccn2)CCCCC1)C1=Nc2ccc(Cl)cc2S(=O)(=O)N1
4. Cc1cc(O)cc(C(CNC(=O)C2=Nc3ccc(Cl)cc3S(=O)(=O)N2)c2ncco2)c1 (centres unmarked)
5. O=C(NCC(c1ccccc1)c1ncco1)C1=Nc2ccc(I)cc2S(=O)(=O)N1 (single isomer, unassigned) [Example 147]

[6.92, 6.60, 6.11, 5.36, 6.51]

Hey, quick one: what's pIC50 for each of these?
1. O=C(NCC(c1ccccc1)c1ncco1)C1=Nc2ccc(F)cc2S(=O)(=O)N1 (centres unmarked) [Example 36]
2. O=C(NCC(F)(F)c1ccccc1OC(F)F)C1=Nc2ccc(I)cc2S(=O)(=O)N1

[6.14, 5.49]

---

Record form. Attribute: pIC50. Fill in for each entry.
Target desc: TIP60-KAT5 (Homo sapiens)
Construct: encoding amino acid residues 2 to 461 (Uniprot Q92993-2) of human KAT5 isoform; made in house; host or cells: E. coli BL21 DE3
Assay details: Revised Acetyltransferase Biochemical Assay, KAT5
Study conditions: 10 nM KAT5, 1 μM AcCoA, 100 nM histone H4, 90 min
Answers are plain numbers, as −log10 of the molar value.

Here's what some known entries look like.
O=C(NCC(c1ccccc1)c1ccccc1)C1=Nc2ccccc2S(=O)(=O)N1 : 5.14
O=C(NCC(c1ccccc1)c1ncco1)C1=Nc2ccc(-c3c[nH]nn3)cc2S(=O)(=O)N1 (centres unmarked) : 6.71
O=C(NCC(c1cccc(-c2ccccc2)c1)c1ncco1)C1=Nc2ccccc2S(=O)(=O)N1 (centres unmarked) : 4.57
O=C(NCCc1ccccc1-c1n[nH]c(=O)o1)C1=Nc2ccccc2S(=O)(=O)N1 : 5.73
O=C(NCCc1ccccc1-n1ccnn1)C1=Nc2ccc(I)cc2S(=O)(=O)N1 : 6.00
COCc1cnn(-c2ccccc2CCNC(=O)C2=Nc3ccc(I)cc3S(=O)(=O)N2)n1 : 6.22

Hey, quick one: what's pIC50 for each of these?
1. O=C(NCC(c1ncco1)c1ccccc1O)C1=Nc2ccc(I)cc2S(=O)(=O)N1 (centres unmarked)
2. COc1ccc2c(c1)S(=O)(=O)NC(C(=O)NCC(c1ccccc1)c1ccccc1)=N2
3. O=C(NCC(F)(F)c1ccccc1OC(F)F)C1=Nc2ccc(Cl)cc2S(=O)(=O)N1
4. O=C(NCCc1ccccc1-n1ncc(CO)n1)C1=Nc2ccc(I)cc2S(=O)(=O)N1
5. O=C(NCC(c1cccc(Cl)c1)c1ncco1)C1=Nc2ccc(Cl)cc2S(=O)(=O)N1 (centres unmarked)
6. O=C(NCCc1ccccc1-n1cccn1)C1=Nc2ccc(I)cc2S(=O)(=O)N1

6.95
4.83
5.56
6.52
5.81
6.51

Hey, quick one: what's pIC50 for each of these?
1. O=C(NCC(c1ccccc1)c1nncs1)C1=Nc2ccc(I)cc2S(=O)(=O)N1 (centres unmarked)
2. COc1ccccc1C(O)CNC(=O)C1=Nc2ccc(I)cc2S(=O)(=O)N1 (single isomer, unassigned)
3. N#Cc1ccccc1C(CNC(=O)C1=Nc2ccccc2S(=O)(=O)N1)c1ncco1 (centres unmarked)
4. O=C(NCC(F)(c1ccccc1)c1ncco1)C1=Nc2ccc(I)cc2S(=O)(=O)N1 (centres unmarked)

[6.34, 5.86, 4.78, 7.64]

---

Record form. Attribute: IC50. Fill in for each entry.
Target desc: TIP60-KAT5 (Homo sapiens, UniProt Q92993)
Construct: encoding amino acid residues 2 to 461 (Uniprot Q92993-2) of human KAT5 isoform; made in house; host or cells: E. coli BL21 DE3
Sequence (Q92993 2-461 isoform Q92993-2): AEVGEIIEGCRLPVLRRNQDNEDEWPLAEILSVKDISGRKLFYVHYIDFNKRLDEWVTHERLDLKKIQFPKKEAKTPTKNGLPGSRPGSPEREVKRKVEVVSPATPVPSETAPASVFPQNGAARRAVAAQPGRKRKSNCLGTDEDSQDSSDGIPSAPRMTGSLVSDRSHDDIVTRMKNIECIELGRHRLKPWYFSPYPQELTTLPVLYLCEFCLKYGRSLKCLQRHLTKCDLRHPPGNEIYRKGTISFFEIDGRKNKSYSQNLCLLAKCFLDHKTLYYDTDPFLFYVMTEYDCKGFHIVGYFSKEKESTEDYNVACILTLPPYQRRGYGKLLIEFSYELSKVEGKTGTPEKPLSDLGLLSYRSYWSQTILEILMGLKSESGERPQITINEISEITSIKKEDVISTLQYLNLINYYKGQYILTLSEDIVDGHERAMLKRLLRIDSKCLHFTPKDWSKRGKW
Assay details: Acetyltransferase biochemical assay (AlphaScreen), KAT5
Study conditions: Table 1 (TIP60-KAT5); 0.4 μM Acetyl coenzyme A, histone H4, 10 nM enzyme
Numbers only, in µM.

Here's what some known entries look like.
O=C(NCC(c1ccccc1)c1ncco1)C1=Nc2ccc(Br)cc2S(=O)(=O)N1 (centres unmarked) [Example 1] : 0.286
CN(C)C(=O)c1ccc2c(c1)S(=O)(=O)NC(C(=O)NCC(c1ccccc1)c1ncco1)=N2 (centres unmarked) [Example 33] : 6.95
O=C(NCCc1ccccc1CO)C1=Nc2ccc(I)cc2S(=O)(=O)N1 [Example 109] : 3.42

Hey, quick one: what's IC50 for each of these?
1. O=C(NCCc1ccccc1OC(F)F)C1=Nc2ccc(Br)cc2S(=O)(=O)N1 [Example 115]
2. O=C(NCC(c1ccccc1)n1cccn1)C1=Nc2ccccc2S(=O)(=O)N1 (centres unmarked) [Example 75]
3. Nc1ccc(CCNC(=O)C2=Nc3ccc(I)cc3S(=O)(=O)N2)cc1 [Example 100]
4. O=C(NCC(c1ccccc1)c1ncco1)C1=Nc2ccc(I)cc2S(=O)(=O)N1 (single isomer, unassigned) [Example 146]
5. COC(=O)C(CNC(=O)C1=Nc2ccccc2S(=O)(=O)N1)c1ccccc1 (centres unmarked) [Example 112]

1: 0.423; 2: 56.6; 3: 40.5; 4: 0.0468; 5: 18.5

---

Target desc: MOF-KAT8 (Homo sapiens, UniProt Q9H7Z6)
Sequence (Q9H7Z6 177-447): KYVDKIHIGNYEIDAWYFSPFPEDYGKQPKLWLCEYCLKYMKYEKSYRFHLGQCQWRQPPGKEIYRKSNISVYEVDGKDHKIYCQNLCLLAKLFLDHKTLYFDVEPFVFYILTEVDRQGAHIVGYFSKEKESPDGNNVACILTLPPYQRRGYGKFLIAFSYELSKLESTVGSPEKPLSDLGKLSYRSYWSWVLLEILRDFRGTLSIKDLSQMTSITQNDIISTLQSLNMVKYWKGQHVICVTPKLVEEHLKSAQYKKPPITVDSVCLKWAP
Assay details: Acetyltransferase biochemical assay (AlphaScreen), KAT8
Study conditions: Table 4 (MOF-KAT8); 0.4 μM Acetyl coenzyme A, histone H4, 20 nM enzyme
Record form. Attribute: IC50. Fill in for each entry.
Answers are plain numbers, in µM.

O=C(NCC(c1ncco1)c1ccccc1F)C1=Nc2ccc(I)cc2S(=O)(=O)N1 (stereo not shown) : 6.59
O=C(NCC(c1ccccc1)c1ncco1)C1=Nc2ccccc2S(=O)(=O)N1 (stereo not shown) [Example 46] : 88.2
O=C(NCC(c1cccc(O)c1)c1ncco1)C1=Nc2ccc(Cl)cc2S(=O)(=O)N1 (stereo not shown) : 64.3

API: value(readout=IC50, system=MOF-KAT8 (Homo sapiens, UniProt Q9H7Z6)) for record O=C(NCC(c1ccccc1)c1nccs1)C1=Nc2ccc(I)cc2S(=O)(=O)N1 (stereo not shown)
6.48

---

System: histone H3 Lysine 14 acetylation (HBO1 mediated) in U2OS cells
Assay details: Histone H3 Lysine 14 Acetylation Biomarker Assay (384-well, U2OS)
Type: cell-based
Study conditions: Homo sapiens, serum free medium, 24 hours incubation
Measured parameter: IC50 (nM)
Numbers only, in nM.

COCC(CNC(=O)C1=Nc2ccc(Cl)cc2S(=O)(=O)N1)c1ccccc1 (centres unmarked) : 24400
Cc1ccccc1C(CNC(=O)C1=Nc2ccc(I)cc2S(=O)(=O)N1)c1ncco1 (centres unmarked) : 498
O=C(NCC(F)(c1ccccc1)c1ncco1)C1=Nc2ccc(Cl)cc2S(=O)(=O)N1 (centres unmarked) : 1840
O=C(NCC(F)(F)c1ccccc1)C1=Nc2ccc(I)cc2S(=O)(=O)N1 : 13700
Cc1cc(O)cc(C(CNC(=O)C2=Nc3ccc(I)cc3S(=O)(=O)N2)c2ncco2)c1 (centres unmarked) : 437
Cc1ccc(C(CNC(=O)C2=Nc3ccc(I)cc3S(=O)(=O)N2)c2ncco2)cc1 (centres unmarked) : 1300
O=C(NCC(c1cccc(Cl)c1)c1ncco1)C1=Nc2ccc(Cl)cc2S(=O)(=O)N1 (centres unmarked) : 6520

IC50 lookup needed for Cc1cccc(C(CNC(=O)C2=Nc3ccc(I)cc3S(=O)(=O)N2)c2ncco2)c1 (centres unmarked) , thanks.
3200

---

Record form. Attribute: pIC50. Fill in for each entry.
Target desc: HBO-KAT7 (Homo sapiens, UniProt O95251)
Construct: encoding amino acid residues 325 to 611 (Uniprot 095251-1) of human KAT7; made in house; host or cells: E. coli BL21 DE3 RIL
Sequence (O95251 with tags, fused parts or gaps): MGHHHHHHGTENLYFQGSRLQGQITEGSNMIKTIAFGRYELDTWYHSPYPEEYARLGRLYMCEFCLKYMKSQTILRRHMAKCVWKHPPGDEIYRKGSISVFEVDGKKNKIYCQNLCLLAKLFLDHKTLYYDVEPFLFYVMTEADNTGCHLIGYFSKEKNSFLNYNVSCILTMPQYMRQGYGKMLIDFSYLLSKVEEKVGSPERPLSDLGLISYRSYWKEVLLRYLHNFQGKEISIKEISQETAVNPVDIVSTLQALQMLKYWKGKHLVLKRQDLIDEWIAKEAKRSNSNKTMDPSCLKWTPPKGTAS
Assay details: Acetyltransferase biochemical assay (AlphaScreen), KAT7
Study conditions: Table 3 (HBO-KAT7); 0.4 μM Acetyl coenzyme A, histone H3.1, 40 nM enzyme
Give bare numbers, as −log10 of the molar value.

Here's what some known entries look like.
CNC(=O)Cn1cc(-c2ccc3c(c2)S(=O)(=O)NC(C(=O)NCC(c2ccccc2)c2ncco2)=N3)cn1 (stereo not shown) : 4.70
O=C(NCCc1cccnc1)C1=Nc2ccc(I)cc2S(=O)(=O)N1 : 4.30
COCc1ccccc1CCNC(=O)C1=Nc2ccc(I)cc2S(=O)(=O)N1 : 5.75

Proceeding to the next molecule to report its pIC50.
pIC50 lookup needed for O=C(NCC(c1ccccc1)c1ncco1)C1=Nc2ccc(O)cc2S(=O)(=O)N1 (stereo not shown) , thanks.
5.92
